Recorded Ki by entry
target: recombinant human A2A receptors (Homo sapiens, UniProt P29274); construct: expressed in transfected cells; host or cells: Sf9 insect cells infected with virus; membranes; experiment: Radioligand competition binding with 125I-APE or 125I-ZM241385, Sf9 cell membranes; conditions: 125I-APE or 125I-ZM241385, Sf9 membranes; class symbols
Sequence (P29274 whole entry): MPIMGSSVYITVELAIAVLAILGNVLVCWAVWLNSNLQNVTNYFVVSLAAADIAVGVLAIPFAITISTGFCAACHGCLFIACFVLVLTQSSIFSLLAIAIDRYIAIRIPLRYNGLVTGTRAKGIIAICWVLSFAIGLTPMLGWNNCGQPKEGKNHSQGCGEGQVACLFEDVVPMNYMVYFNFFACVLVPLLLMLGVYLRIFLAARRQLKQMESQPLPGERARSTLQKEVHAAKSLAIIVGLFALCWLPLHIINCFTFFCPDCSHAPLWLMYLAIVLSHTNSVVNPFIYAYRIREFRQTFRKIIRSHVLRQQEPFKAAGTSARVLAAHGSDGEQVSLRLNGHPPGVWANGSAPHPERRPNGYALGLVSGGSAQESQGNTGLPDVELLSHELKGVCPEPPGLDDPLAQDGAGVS

In the examples that follow, each entry is paired with its recorded Ki.
>  <COMPOUND>
Nc1nc(C#CCC2CCN(C(=O)OCCOCc3ccccc3)CC2)nc2c1ncn2[C@@H]1O[C@H](C(=O)NC2CC2)C(O)[C@@H]1O (some centres unmarked)

>  <TARGET OR TEST SYSTEM>
recombinant human A2A receptors (Homo sapiens, UniProt P29274)

>  <Ki>
< 1 nM

$$$$
>  <COMPOUND>
Nc1nc(CCCC2CCN(C(=O)Oc3ccccc3)CC2)nc2c1ncn2[C@@H]1O[C@H](C(=O)NC2CC2)C(O)[C@@H]1O (some centres unmarked)

>  <TARGET OR TEST SYSTEM>
recombinant human A2A receptors (Homo sapiens, UniProt P29274)

>  <Ki>
< 100 nM

$$$$
>  <COMPOUND>
Nc1nc(C#CCC2CCN(C(=O)Nc3cccc(Cl)c3)CC2)nc2c1ncn2[C@@H]1O[C@H](C(=O)NC2CC2)C(O)[C@@H]1O (some centres unmarked)

>  <TARGET OR TEST SYSTEM>
recombinant human A2A receptors (Homo sapiens, UniProt P29274)

>  <Ki>
< 10 nM

$$$$
>  <COMPOUND>
Nc1nc(C#CCC2CCN(C(=O)Oc3ccc(Cl)cc3)CC2)nc2c1ncn2[C@@H]1O[C@H](CO)[C@@H](O)[C@H]1O

>  <TARGET OR TEST SYSTEM>
recombinant human A2A receptors (Homo sapiens, UniProt P29274)

>  <Ki>
< 1 nM

$$$$

Query block: Need Ki of Nc1nc(C#CCC2CCN(C(=O)Oc3ccc(Cl)c(Cl)c3)CC2)nc2c1ncn2[C@@H]1O[C@H](C(=O)NC2CC2)C(O)[C@@H]1O (some centres unmarked) , thanks.
Result block: < 1 nM

====

Recorded Ki by entry
target: recombinant human A2A receptors (Homo sapiens, UniProt P29274); construct: expressed in transfected cells; host or cells: Sf9 insect cells infected with virus; membranes; experiment: Radioligand competition binding with 125I-APE or 125I-ZM241385, Sf9 cell membranes; settings: 125I-APE or 125I-ZM241385, Sf9 membranes; class symbols

Query block: Need Ki of Cc1ccc(OC(=O)N2CCC(CC#Cc3nc(N)c4ncn([C@@H]5O[C@H](CO)[C@@H](O)[C@H]5O)c4n3)CC2)cc1C [Compound 53] , thanks.
Result block: < 1 nM

Query block: Need Ki of Cc1ccc(OC(=O)N2CCC(CCCc3nc(N)c4ncn([C@@H]5O[C@H](C(=O)NC6CC6)C(O)[C@@H]5O)c4n3)CC2)cc1 (stereo partly drawn) [Compound 39] , thanks.
Result block: < 100 nM

Query block: Need Ki of Nc1nc(C#CCC2CCN(C(=O)Oc3ccccc3Cl)CC2)nc2c1ncn2[C@@H]1O[C@H](CO)[C@@H](O)[C@H]1O [Compound 35] , thanks.
Result block: < 1 nM

====

molecular target: human A3 AR (Homo sapiens, UniProt P0DMS8); construct: expressed in transfected cells; membranes; test: Radioligand competition binding with 125I-ABA, membranes of HEK 293 cells stably expressing the receptor; conditions: Ki derived from IC50, class symbols
PROPERTY: Ki

>  <COMPOUND>
Nc1nc(C#CCC2CCN(C(=O)Oc3ccc(Cl)cc3)CC2)nc2c1ncn2[C@@H]1O[C@H](C(=O)NC2CC2)C(O)[C@@H]1O (stereo partly drawn)

>  <Ki>
< 0.1 µM

$$$$
>  <COMPOUND>
Nc1nc(C#CCC2CCN(C(=O)Oc3ccc(Cl)c(Cl)c3)CC2)nc2c1ncn2[C@@H]1O[C@H](CO)C(O)[C@@H]1O (stereo partly drawn)

>  <Ki>
< 0.01 µM

$$$$
>  <COMPOUND>
CCNC(=O)[C@H]1O[C@@H](n2cnc3c(N)nc(C#CCC4CCN(C(=O)OCc5ccccc5)CC4)nc32)[C@@H](O)C1O (stereo partly drawn) [Compound 32, reference compound]

>  <Ki>
< 0.1 µM

$$$$
>  <COMPOUND>
COc1ccccc1OC(=O)N1CCC(CC#Cc2nc(N)c3ncn([C@@H]4O[C@H](C(=O)NC5CC5)C(O)[C@@H]4O)c3n2)CC1 (stereo partly drawn)

>  <Ki>
< 0.1 µM

$$$$
>  <COMPOUND>
Nc1nc(C#CCC2CCN(C(=O)Oc3ccc(F)cc3)CC2)nc2c1ncn2[C@@H]1O[C@H](C(=O)NC2CC2)C(O)[C@@H]1O (stereo partly drawn)

>  <Ki>
< 0.1 µM

$$$$

Query block: Notebook entry, human A3 AR (Homo sapiens, UniProt P0DMS8) assay: Ki of Nc1nc(C#CCC2CCN(C(=O)Oc3ccc([N+](=O)[O-])cc3)CC2)nc2c1ncn2[C@@H]1O[C@H](CO)[C@@H](O)[C@H]1O = ?
Result block: < 0.1 µM

Query block: Notebook entry, human A3 AR (Homo sapiens, UniProt P0DMS8) assay: Ki of COc1ccc(OC(=O)N2CCC(CC#Cc3nc(N)c4ncn([C@@H]5O[C@H](C(=O)NC6CC6)C(O)[C@@H]5O)c4n3)CC2)cc1 (stereo partly drawn) = ?
Result block: < 0.1 µM

Query block: Notebook entry, human A3 AR (Homo sapiens, UniProt P0DMS8) assay: Ki of Nc1nc(C#CCC2CCN(C(=O)OCCOCc3ccccc3)CC2)nc2c1ncn2[C@@H]1O[C@H](CO)C(O)[C@@H]1O (stereo partly drawn) = ?
Result block: < 0.1 µM

Query block: Notebook entry, human A3 AR (Homo sapiens, UniProt P0DMS8) assay: Ki of COC(=O)c1ccc(OC(=O)N2CCC(CC#Cc3nc(N)c4ncn([C@@H]5O[C@H](CO)[C@@H](O)[C@H]5O)c4n3)CC2)cc1 = ?
Result block: < 0.1 µM

====

Recorded pKi by entry
Molecular target: human A3 AR (Homo sapiens, UniProt P0DMS8)
Construct: expressed in transfected cells; membranes
Sequence (P0DMS8 1-318): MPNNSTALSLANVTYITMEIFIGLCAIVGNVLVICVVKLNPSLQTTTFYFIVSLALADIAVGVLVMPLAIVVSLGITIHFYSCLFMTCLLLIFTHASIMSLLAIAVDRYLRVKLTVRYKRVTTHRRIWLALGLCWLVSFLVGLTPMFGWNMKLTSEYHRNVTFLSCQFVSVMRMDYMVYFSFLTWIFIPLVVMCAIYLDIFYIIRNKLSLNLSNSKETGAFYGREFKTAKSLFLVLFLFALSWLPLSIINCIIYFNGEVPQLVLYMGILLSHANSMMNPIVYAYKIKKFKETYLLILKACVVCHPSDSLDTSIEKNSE
Assay: Radioligand competition binding with 125I-ABA, membranes of HEK 293 cells stably expressing the receptor
Details: Ki derived from IC50, class symbols
pKi: −log10 of the molar value.

In the examples that follow, each entry is paired with its recorded pKi.
>  <COMPOUND>
Nc1nc(C#CCC2CCN(C(=O)Nc3ccc(F)cc3)CC2)nc2c1ncn2[C@@H]1O[C@H](CO)C(O)[C@@H]1O (stereo partly drawn) [Compound 44]

>  <pKi>
> 7.00

$$$$
>  <COMPOUND>
Nc1nc(C#CCC2CCN(C(=O)OCc3ccc([N+](=O)[O-])cc3)CC2)nc2c1ncn2[C@@H]1O[C@H](CO)[C@@H](O)[C@H]1O [Compound 30]

>  <pKi>
> 7.00

$$$$

Next:
Query block: Notebook entry, human A3 AR (Homo sapiens, UniProt P0DMS8) assay: pKi of Cc1ccc(OC(=O)N2CCC(CC#Cc3nc(N)c4ncn([C@@H]5O[C@H](C(=O)NC6CC6)C(O)[C@@H]5O)c4n3)CC2)cc1 (stereo partly drawn) [Compound 20] = ?
Result block: < 7.00

====

molecular target: human A1 AR (Homo sapiens); construct: expressed in transfected cells; membranes; assay: Radioligand competition binding with 125I-ABA, membranes of CHO K1 cells stably expressing the receptor; conditions: Ki derived from IC50, class symbols
Sequence (P30542 whole entry): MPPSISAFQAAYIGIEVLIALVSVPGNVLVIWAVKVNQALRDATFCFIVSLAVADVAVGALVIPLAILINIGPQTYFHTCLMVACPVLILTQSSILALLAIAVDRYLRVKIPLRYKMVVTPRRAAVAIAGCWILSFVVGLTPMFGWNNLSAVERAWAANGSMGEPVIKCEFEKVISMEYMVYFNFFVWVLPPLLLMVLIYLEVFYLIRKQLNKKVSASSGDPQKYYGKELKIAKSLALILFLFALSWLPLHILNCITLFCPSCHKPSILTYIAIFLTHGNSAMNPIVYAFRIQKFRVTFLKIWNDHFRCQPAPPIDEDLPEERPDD
Recorded Ki by entry

In the examples that follow, each entry is paired with its recorded Ki.
>  <COMPOUND>
CCNC(=O)[C@H]1O[C@@H](n2cnc3c(N)nc(C#CCC4CCN(C(=O)Oc5ccc(Cl)c(Cl)c5)CC4)nc32)[C@@H](O)C1O (stereo partly drawn)

>  <Ki>
< 0.1 µM

$$$$
>  <COMPOUND>
Nc1nc(C#CCC2CCN(C(=O)Oc3ccccc3)CC2)nc2c1ncn2[C@@H]1O[C@H](CO)[C@@H](O)[C@H]1O [Compound 4, reference compound]

>  <Ki>
< 0.1 µM

$$$$

Next:
Query block: Notebook entry, human A1 AR (Homo sapiens) assay: Ki of Nc1nc(C#CCC2CCN(C(=O)Oc3cccc(C(F)(F)F)c3)CC2)nc2c1ncn2[C@@H]1O[C@H](C(=O)NC2CC2)C(O)[C@@H]1O (stereo partly drawn) = ?
Result block: < 0.1 µM
